For each of the molecules below, state its IC50.
System: FLT3-wild type HL60 cells
Assay: Cytotoxicity by MTS assay, control cell line HL60
Format: cell-based
Details: Homo sapiens, HL-60; Table 3; FLT3-wild type control cell line; read-out: HL60 (IC50, mean±SEM)
All answers are understood in µM, so give the number only.

For Cc1cccc(-c2cn(CB(O)O)nn2)c1 the molecule record lists IC50 as 32

For OB(O)Cn1cc(-c2cccc(Cl)c2)nn1 the molecule record lists IC50 as 15

* * *

Test system: MV-4-11 cells (FLT3-ITD)
Assay: Cell viability by MTS assay, MV-4-11 cells
Assay type: cell-based
Conditions: Homo sapiens, MV4-11; Table 4; control analogues lacking boronic group; read-out: MV-4-11 (IC50, mean±SEM)
Procedure: Cellular assays were carried out on MV‐4‐11 cells, driven by the FLT3‐ITD mutation. The purified enzyme was employed in an ELISA‐based kinase assay with 300 μM ATP and a Tyr‐phosphorylatable substrate peptide, using an anti‐phosphotyrosine antibody for detection (PY20; Santa Cruz Biotech). Cell viability was determined by MTS assay using the CellTiter 96® AQueous One Solution Cell Proliferation Assay kit (Promega) according to manufacturer's instructions. […]
For each of the compounds below, state its IC50.

For Nc1ccc(-c2cn(CC(=O)O)nn2)cc1 the compound record lists IC50 as > 100 µM

For CCCCn1cc(-c2ccc(N)cc2)nn1 the compound record lists IC50 as > 100 µM

* * *

Biological target: recombinant His-tagged FLT3 kinase domain (aa 569–992) (Homo sapiens)
Construct: FLT3 kinase domain (aa 569–992); His; made in house; host or cells: Sf9 cells
Experiment: ELISA-based in vitro FLT3 kinase assay
Assay type: biochemical
Settings: Table 2; recombinant FLT3, 300 μM ATP
measured quantity: FLT3 Kinase (IC50, mean±SEM)

Bench note, recombinant His-tagged FLT3 kinase domain (aa 569–992) (Homo sapiens): entry OB(O)Cn1cc(CNc2ccccc2)nn1 , its FLT3 Kinase (IC50, mean±SEM) = lose enzymatic activity

Bench note, recombinant His-tagged FLT3 kinase domain (aa 569–992) (Homo sapiens): entry O=C(OCc1cn(CB(O)O)nn1)c1ccccc1 , its FLT3 Kinase (IC50, mean±SEM) = do not inhibit FLT3

Bench note, recombinant His-tagged FLT3 kinase domain (aa 569–992) (Homo sapiens): entry OB(O)Cn1cc(COc2ccccc2)nn1 , its FLT3 Kinase (IC50, mean±SEM) = do not inhibit FLT3

Bench note, recombinant His-tagged FLT3 kinase domain (aa 569–992) (Homo sapiens): entry O=C(NCc1cn(CB(O)O)nn1)C(F)(F)F , its FLT3 Kinase (IC50, mean±SEM) = lose enzymatic activity

* * *

Biological target: recombinant His-tagged FLT3 kinase domain (aa 569–992) (Homo sapiens, UniProt P36888)
Construct: FLT3 kinase domain (aa 569–992); His; made in house; host or cells: Sf9 cells
Sequence (P36888 569-992): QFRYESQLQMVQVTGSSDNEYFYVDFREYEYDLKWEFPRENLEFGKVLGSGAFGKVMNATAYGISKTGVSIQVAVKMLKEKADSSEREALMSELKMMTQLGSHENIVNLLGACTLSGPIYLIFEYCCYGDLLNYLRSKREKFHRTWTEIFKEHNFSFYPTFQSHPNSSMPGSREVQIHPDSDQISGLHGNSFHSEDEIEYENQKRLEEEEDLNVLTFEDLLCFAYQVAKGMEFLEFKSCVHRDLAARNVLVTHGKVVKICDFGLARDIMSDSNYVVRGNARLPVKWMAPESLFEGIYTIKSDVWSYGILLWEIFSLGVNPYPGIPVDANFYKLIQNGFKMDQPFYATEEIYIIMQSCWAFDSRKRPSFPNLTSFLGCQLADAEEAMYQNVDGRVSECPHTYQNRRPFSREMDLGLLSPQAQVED
Test: ELISA-based in vitro FLT3 kinase assay
Type: biochemical
Conditions: Table 2; recombinant FLT3, 300 μM ATP; read-out: FLT3 Kinase (IC50, mean±SEM)
pIC50: −log10 of the molar value.
Binary call on pIC50: satisfied from 5 upward, not satisfied beneath that.

pIC50 >= 5 for COC(=O)c1ccc(CS(=O)(=O)NCc2cn(CB(O)O)nn2)cc1 ?
not satisfied

pIC50 >= 5 for OB(O)Cn1cc(CNc2ccccc2)nn1 ?
not satisfied

pIC50 >= 5 for COC(=O)c1cccc(CS(=O)(=O)NCc2cn(CB(O)O)nn2)c1 ?
not satisfied

pIC50 >= 5 for OB(O)Cn1cc(-c2cnccn2)nn1 ?
not satisfied

pIC50 >= 5 for O=S(=O)(NCc1cn(CB(O)O)nn1)c1cccs1 ?
not satisfied

pIC50 >= 5 for OB(O)Cn1cc(COc2ccccc2)nn1 ?
not satisfied

pIC50 >= 5 for O=C(OCc1cn(CB(O)O)nn1)c1ccccc1 ?
not satisfied

pIC50 >= 5 for Cc1ccc(S(=O)(=O)Nc2cccc(OCc3cn(CB(O)O)nn3)c2)cc1 ?
not satisfied

pIC50 >= 5 for O=C(NCc1cn(CB(O)O)nn1)c1ccccc1 ?
satisfied

pIC50 >= 5 for O=C(O)c1cccc(CS(=O)(=O)NCc2cn(CB(O)O)nn2)c1 ?
not satisfied

pIC50 >= 5 for O=S(=O)(CC(F)(F)F)NCc1cn(CB(O)O)nn1 ?
satisfied
